System: HCV chimeric replicon with NS5A of genotype 2b (AB03090)
Assay: Cell-based HCV replicon assay (TaqMan), chimeric replicon genotype 2b (AB03090)
Conditions: Hepatitis C virus, 72 h, read-out: HCV replicon EC50 2b (AB03090), chimeric replicon 2b (AB03090); replicon RNA by TaqMan, day 3
Readings of pEC50 for the listed compounds
Scale explanation: pEC50 corresponds to minus log10 of a concentration expressed in moles per litre.

{"sample.smiles": "COC(=O)N[C@H](C(=O)N1C[Si](C)(C)C[C@H]1c1nc2ccc3cc(-c4ccc(-c5cnc([C@@H]6C[C@H]7C[C@H]7N6C(=O)[C@@H](NC(=O)OC)C(C)C)[nH]5)cc4)ccc3c2[nH]1)C(C)C", "measurement.name": "pEC50", "observed.value": 7.77}
{"sample.smiles": "COC(=O)N[C@H](C(=O)N1CC[C@H](C)[C@H]1c1ncc(-c2ccc(-c3ccc4c(ccc5nc([C@@H]6C[Si](C)(C)CN6C(=O)[C@@H](NC(=O)OC)C(C)C)[nH]c54)c3)cc2)[nH]1)C(C)C", "measurement.name": "pEC50", "observed.value": 7.31}
{"sample.smiles": "COC(=O)N[C@H](C(=O)N1CC(F)(F)C[C@H]1c1ncc(-c2ccc(-c3ccc4c(ccc5nc([C@@H]6C[Si](C)(C)CN6C(=O)[C@@H](NC(=O)OC)C(C)C)[nH]c54)c3)cc2)[nH]1)C(C)C", "measurement.name": "pEC50", "observed.value": 7.32}

# evaluate next
Input line: State its pEC50: "COC(=O)N[C@H](C(=O)N1C[Si](C)(C)C[C@H]1c1ncc(-c2ccc(-c3ccc4c(ccc5nc([C@@H]6CC(F)(F)CN6C(=O)[C@@H](NC(=O)OC)C(C)C)[nH]c54)c3)cc2)[nH]1)C(C)C"
Output line: 6.89
